Consider the following compounds and their measured pKi readings.
Molecular target: GABA-A receptor; alpha-5/beta-3/gamma-2 (Homo sapiens, UniProt P18507+P28472+P31644)
Sequence (P18507 whole entry): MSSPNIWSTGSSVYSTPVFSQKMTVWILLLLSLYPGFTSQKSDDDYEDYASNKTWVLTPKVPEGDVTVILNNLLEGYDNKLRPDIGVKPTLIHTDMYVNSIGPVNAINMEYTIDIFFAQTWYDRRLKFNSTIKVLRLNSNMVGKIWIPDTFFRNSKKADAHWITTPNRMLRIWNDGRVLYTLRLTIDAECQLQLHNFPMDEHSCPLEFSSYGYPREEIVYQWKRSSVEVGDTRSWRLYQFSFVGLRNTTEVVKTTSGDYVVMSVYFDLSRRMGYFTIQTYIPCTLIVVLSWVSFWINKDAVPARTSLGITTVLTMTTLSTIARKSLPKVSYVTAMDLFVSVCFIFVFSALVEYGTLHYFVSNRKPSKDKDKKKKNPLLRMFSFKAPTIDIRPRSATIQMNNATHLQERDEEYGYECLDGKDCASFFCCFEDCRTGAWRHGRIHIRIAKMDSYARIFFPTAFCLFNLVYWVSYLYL
Sequence (P28472 whole entry): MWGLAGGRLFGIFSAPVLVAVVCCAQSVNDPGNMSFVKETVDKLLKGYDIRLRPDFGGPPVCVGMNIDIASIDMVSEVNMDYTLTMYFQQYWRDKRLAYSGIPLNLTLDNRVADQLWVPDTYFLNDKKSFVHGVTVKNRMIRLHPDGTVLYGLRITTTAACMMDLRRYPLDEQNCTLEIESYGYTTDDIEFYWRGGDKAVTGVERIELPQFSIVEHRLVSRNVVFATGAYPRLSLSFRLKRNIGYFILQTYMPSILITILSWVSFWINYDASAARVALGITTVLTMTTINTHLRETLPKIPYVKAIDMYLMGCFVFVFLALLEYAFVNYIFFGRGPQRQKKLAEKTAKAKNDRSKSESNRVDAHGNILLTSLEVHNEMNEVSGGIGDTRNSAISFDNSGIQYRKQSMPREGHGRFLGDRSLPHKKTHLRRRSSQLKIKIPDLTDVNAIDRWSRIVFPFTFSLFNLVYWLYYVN
Sequence (P31644 whole entry): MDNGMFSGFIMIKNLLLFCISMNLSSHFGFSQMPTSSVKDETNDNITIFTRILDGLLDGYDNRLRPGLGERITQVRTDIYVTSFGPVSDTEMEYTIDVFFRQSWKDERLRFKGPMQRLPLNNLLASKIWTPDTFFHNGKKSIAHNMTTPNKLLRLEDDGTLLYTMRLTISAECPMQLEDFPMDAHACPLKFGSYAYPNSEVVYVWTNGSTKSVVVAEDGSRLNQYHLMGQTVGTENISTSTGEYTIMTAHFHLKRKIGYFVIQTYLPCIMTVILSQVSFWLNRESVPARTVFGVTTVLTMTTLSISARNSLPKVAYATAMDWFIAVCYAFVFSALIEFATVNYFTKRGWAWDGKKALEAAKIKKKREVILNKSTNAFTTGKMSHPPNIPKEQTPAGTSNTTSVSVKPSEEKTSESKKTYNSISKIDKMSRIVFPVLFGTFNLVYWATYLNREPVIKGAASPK
Test: Displacement of [3H]flunitrazepam from human recombinant GABAA alpha-5-beta-3-gamma-2 receptor expressed in HEK cells by liquid scintillation counting
Formally, pKi is defined as -log10 of the concentration c, with c in mol/L.

- CCOC(=O)c1cc2c(cn1)[nH]c1ccc(I)cc12: 6.54
- CC(C)(C)OC(=O)c1cc2c(cn1)[nH]c1ccc(F)cc12: 8.34
- CC(C)(C)OC(=O)c1cc2c(cn1)[nH]c1ccc(I)cc12: 7.19

Consider the record given below.
Challenge: pKi for O=C(OCC(Cl)(Cl)Cl)c1cc2c(cn1)[nH]c1ccccc12 ?
Response given: 6.72
